Value source: patent US6972296B2

- system.name: α4β1 integrin (Homo sapiens, UniProt P05556+P13612)
- Construct: endogenous in cells; host or cells: Ramos cells
- Sequence (P13612 34-1032): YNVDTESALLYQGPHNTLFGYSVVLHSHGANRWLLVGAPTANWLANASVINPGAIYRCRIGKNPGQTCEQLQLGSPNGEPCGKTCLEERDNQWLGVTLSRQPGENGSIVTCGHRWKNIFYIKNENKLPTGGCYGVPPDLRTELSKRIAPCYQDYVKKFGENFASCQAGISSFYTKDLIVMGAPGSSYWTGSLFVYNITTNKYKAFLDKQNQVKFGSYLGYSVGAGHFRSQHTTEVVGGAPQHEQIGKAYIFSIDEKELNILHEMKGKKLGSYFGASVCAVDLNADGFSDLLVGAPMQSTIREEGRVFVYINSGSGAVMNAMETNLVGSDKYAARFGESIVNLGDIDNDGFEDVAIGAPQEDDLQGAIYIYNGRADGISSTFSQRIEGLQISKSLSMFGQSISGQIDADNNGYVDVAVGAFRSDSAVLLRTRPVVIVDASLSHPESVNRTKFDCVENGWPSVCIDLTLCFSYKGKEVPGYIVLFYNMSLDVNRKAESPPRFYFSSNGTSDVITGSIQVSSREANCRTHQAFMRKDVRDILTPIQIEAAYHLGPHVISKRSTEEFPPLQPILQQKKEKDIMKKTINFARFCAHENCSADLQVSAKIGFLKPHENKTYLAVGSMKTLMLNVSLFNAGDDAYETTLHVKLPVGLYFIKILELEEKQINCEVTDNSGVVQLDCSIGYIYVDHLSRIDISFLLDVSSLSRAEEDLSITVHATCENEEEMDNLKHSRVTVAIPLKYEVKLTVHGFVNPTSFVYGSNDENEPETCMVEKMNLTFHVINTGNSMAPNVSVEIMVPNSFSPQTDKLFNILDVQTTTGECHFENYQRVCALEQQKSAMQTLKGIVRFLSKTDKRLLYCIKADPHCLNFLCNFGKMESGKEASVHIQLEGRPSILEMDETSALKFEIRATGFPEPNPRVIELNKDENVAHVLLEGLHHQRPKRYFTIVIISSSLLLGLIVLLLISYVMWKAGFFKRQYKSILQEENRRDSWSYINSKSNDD
- Sequence (P05556 21-798): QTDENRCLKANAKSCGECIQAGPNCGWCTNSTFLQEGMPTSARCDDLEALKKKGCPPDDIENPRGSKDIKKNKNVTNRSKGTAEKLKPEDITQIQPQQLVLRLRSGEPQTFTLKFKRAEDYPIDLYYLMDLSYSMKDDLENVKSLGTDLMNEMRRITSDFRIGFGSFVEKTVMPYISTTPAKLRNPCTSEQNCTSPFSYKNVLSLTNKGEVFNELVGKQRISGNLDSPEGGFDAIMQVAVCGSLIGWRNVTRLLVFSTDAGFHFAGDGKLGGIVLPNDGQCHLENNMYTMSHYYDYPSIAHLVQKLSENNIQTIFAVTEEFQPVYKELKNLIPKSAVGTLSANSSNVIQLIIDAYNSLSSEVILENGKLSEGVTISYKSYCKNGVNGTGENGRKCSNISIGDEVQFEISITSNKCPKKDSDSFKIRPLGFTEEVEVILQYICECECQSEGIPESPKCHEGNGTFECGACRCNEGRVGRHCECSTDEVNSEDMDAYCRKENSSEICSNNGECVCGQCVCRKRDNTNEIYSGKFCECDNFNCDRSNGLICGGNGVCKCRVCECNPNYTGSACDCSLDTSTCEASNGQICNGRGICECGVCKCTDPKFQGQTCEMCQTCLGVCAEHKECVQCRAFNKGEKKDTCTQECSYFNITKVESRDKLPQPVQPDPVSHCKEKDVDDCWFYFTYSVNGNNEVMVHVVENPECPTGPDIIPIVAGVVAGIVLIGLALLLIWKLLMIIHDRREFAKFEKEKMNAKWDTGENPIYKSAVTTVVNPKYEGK
- test.name: Adhesion of calcein-labeled Ramos cells to CS1 (fibronectin) peptide conjugated ovalbumin
- Type: cell-based
- run.parameters: Table 5; Ramos cell adhesion to CS1 conjugated ovalbumin; dose required to give 50% inhibition
- Source text: A procedure in which a 26-amino acid peptide containing the CS1 sequence of fibronectin with an N-terminal Cys ([…]) was coupled to maleimide activated ovalbumin was used to determine the efficacy of the compounds synthesized. […] Following three washes with binding buffer, adherent cells were lysed and quantitated using a fluorometer. […]
assay.endpoint: log10(IC50) (log10 of the value in µM)
In plain terms, each number is the log10 of measured IC50 in µM.

CCCCOc1ccc([C@H](CC(=O)O)NC(=O)Nc2c(O)ccn(Cc3ccccc3Cl)c2=O)cc1OCCCC yielded log10(IC50) of -1.60

// field: log10(IC50); key: CCCc1cn(Cc2ccccc2Cl)c(=O)c(NC(=O)N[C@@H](CC(=O)O)c2ccc(C)cc2)c1O ; value = -1.70

So for COc1cc([C@H](CC(=O)O)NC(=O)Nc2c(O)ccn(Cc3ccccc3Cl)c2=O)ccc1C , the logged log10(IC50) turned out to be -2.52

compound O=C(O)C[C@H](NC(=O)Nc1c(O)ccn(Cc2ccccc2Cl)c1=O)c1ccc(F)c(C(F)(F)F)c1 , log10(IC50) observed: -1.60

Given item Cc1ccc([C@H](CC(=O)O)NC(=O)Nc2cccn(Cc3ccc(F)cc3)c2=O)cc1 , the value recorded as its log10(IC50) is 0.30

Recorded log10(IC50) (compound COCCOc1cccc([C@H](CC(=O)O)NC(=O)Nc2c(O)ccn(Cc3ccccc3Cl)c2=O)c1 ): -2.52

log10(IC50) measured on CCCCCc1cn(Cc2ccccc2Cl)c(=O)c(NC(=O)N[C@@H](CC(=O)O)c2ccc(C)cc2)c1O = -1.40

log10(IC50) measured on Cc1ccc([C@H](CC(=O)O)NC(=O)Nc2c(O)ccn(Cc3c(C)cc(C)cc3C)c2=O)cc1 = -1.22
